Just for reference, patent US20120277143A1 is where these values come from.

Target: T1, human IL4 (human, UniProt P05112 25-153, biotinylated in the SPR and competition assays (sites not given))
T1 construct: Peprotech #200-04, mature protein produced in E. coli; also called hIL4; Interleukin 4
T1 sequence: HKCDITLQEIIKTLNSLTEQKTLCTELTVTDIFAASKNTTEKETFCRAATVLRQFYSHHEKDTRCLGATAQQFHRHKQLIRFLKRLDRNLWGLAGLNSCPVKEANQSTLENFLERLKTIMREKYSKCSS
Test: SPR ProteOn, biotin-IL4 on neutravidin chip, 1:1 fit
METRIC: kon
Please don't drop the unit; write it after the number.

// kon lookup, binder = C06_20B8 (designed binder, ankyrin repeat protein; His-tagged, IMAC-purified) DLGKKLLEAASAGQDDEVHILMANGADVNAVDHDGFTPLHLAAADGHLEIVEVLLKHGADVNADDNFGWTPLHLAAFFGHLEIVEVLLKHGADVNAKDQTGLTPLHLAAVDGHLEIVEVLLKHGADVNAQDKFGKTAFDISIDNGNEDLAEILQKLN , result: 2.02e+06 M⁻¹ s⁻¹

// kon lookup, binder = C06_19F8 (designed binder, ankyrin repeat protein; His-tagged, IMAC-purified) DLGKKLLEAARAGQDDEVRILMANGADVNATDDWGDTLLHLAATDGHLEIVEVLLKNGADVNASDSQGLTPLHLAAYYGHLEIVEVLLKYGADVNANDHHGITPLHLAAFAGHLEIVEVLLKYGADVNAQDKFGKTAFDISIDNGNEDLAEILQKLN , result: 36600 M⁻¹ s⁻¹
